Reported Kd values are given for each entry in this list.
Assay: Dissociation constant from fluorescence titration with fructose
Assay type: binding
Conditions: pH 7.5 phosphate buffer
Write the answer as a number in µM, unit excluded.

[[record]]
smiles = "Cc1ccc2c(ccc[n+]2Cc2ccccc2B(O)O)c1.[Br-]"
readout_unit = "µM"
measurement = 4700


Returns the measured Kd for the input compound. Input: COc1ccc2c(ccc[n+]2Cc2ccccc2B(O)O)c1.[Br-]
650

----------
Experiment: Spectral properties in water (absorption, emission, quantum yield, lifetime)
Assay type: physicochemical
measurement_label: τf (mean lifetime)
Phrase the answer as number then unit, nothing more needed.

Solved cases below.
[[record]]
compound = "COc1ccc2c(ccc[n+]2Cc2ccccc2)c1 [BMOQ, N-benzyl-6-methoxyquinolinium bromide]"
measurement_label = "τf (mean lifetime)"
measurement = "27.3 ns"

[[record]]
compound = "COc1ccc2c(ccc[n+]2Cc2ccccc2B(O)O)c1.[Br-]"
measurement_label = "τf (mean lifetime)"
measurement = "26.7 ns"

[[record]]
compound = "Cc1ccc2c(ccc[n+]2Cc2ccccc2)c1 [BMQ, N-benzyl-6-methylquinolinium bromide]"
measurement_label = "τf (mean lifetime)"
measurement = "2.59 ns"


Returns the measured τf (mean lifetime) for the input compound. Input: Cc1ccc2c(ccc[n+]2Cc2ccccc2B(O)O)c1.[Br-]
4.01 ns
